assay: chemical genetic growth profiling, strain panel (AID 1159580);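 further: tested at 20 µM; growth read once vehicle control cultures reached saturation at 30 °C; 1 = growth at the plate median or of vehicle wells; lower values mean less growth of the strain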; conditions: S. cerevisiae deletion strains, growth OD, locus YCL011C, strain gbp2, stronger effect = lower value
About 2,000 (36%) of roughly 5,500 compounds were called active. Roughly 18% stayed inconclusive and do not appear here. Some of the results follow.
PROPERTY: normalized growth

[[record]]
compound = "C[C@H]1[C@H](C)CC[C@]2(C(=O)O)CC[C@]3(C)C(=CCC4[C@@]5(C)C[C@@H](O)[C@H](O)[C@@](C)(CO)C5CC[C@]43C)[C@H]12 (stereo partly specified)"
number = 1.02

[[record]]
compound = "CC(C)=CC1C(CO)C1(C)C (stereo unspecified)"
number = 1.02

[[record]]
compound = "N#Cc1c(Cl)cccc1Cl"
number = 0.954

[[record]]
compound = "COc1nc(NC(C)C)nc(NC(C)C)n1"
number = 1.02

[[record]]
compound = "C/C=C(\\C)C(=O)O[C@@H]1c2c(ccc3ccc(=O)oc23)OC(C)(C)[C@@H]1OC(C)=O"
number = 1.01

[[record]]
compound = "O=C(Oc1ccccc1C(=O)O)c1ccccc1O"
number = 0.975

[[record]]
compound = "O=C(Oc1cccc2cccnc12)c1ccccc1"
number = 0.959

[[record]]
compound = "CCCc1nc(C)c2c(=O)[nH]c(-c3cc(S(=O)(=O)N4CCN(CC)CC4)ccc3OCC)nn12"
number = 0.974

[[record]]
compound = "CCCc1nn(C)c2c(=O)[nH]c(-c3cc(S(=O)(=O)N4CCN(C)CC4)ccc3OCC)nc12"
number = 0.987

[[record]]
compound = "CC(=O)Oc1ccccc1C(=O)Oc1ccccc1C(=O)O"
number = 1.02

[[record]]
compound = "CC1(C)Oc2ccc3ccc(=O)oc3c2CC1O (stereo unspecified)"
number = 0.963

